biological target: human GlyT1c transporter (Homo sapiens (Human)); assay: Radioligand binding assay using recombinant CHO cell membranes expressing human GlyT1; conditions: examples 88-204, radioligand not specified by footnote, read-out: radioligand binding Kiapp
Sequence (P48067 whole entry): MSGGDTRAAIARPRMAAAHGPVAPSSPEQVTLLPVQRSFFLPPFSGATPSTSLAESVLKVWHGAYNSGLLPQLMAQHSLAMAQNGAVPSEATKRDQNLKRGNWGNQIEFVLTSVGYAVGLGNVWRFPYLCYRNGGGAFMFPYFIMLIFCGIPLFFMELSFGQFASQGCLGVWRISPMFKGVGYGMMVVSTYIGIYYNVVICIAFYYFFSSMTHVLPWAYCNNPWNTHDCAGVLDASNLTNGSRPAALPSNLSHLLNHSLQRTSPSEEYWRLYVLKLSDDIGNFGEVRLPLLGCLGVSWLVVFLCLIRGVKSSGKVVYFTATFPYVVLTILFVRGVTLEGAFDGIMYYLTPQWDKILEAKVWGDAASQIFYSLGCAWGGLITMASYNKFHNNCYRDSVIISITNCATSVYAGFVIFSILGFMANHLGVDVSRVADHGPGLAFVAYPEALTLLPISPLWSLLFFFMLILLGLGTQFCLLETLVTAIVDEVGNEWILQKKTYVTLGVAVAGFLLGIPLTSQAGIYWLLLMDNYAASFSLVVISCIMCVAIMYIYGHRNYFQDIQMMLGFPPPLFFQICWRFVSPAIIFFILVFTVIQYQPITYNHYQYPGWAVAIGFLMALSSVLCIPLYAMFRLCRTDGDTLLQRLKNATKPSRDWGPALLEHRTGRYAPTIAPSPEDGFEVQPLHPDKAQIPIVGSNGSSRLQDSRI
Counter-ions that a name gives are not always drawn.
QUANTITY_NAME: Ki

Please review the following examples before continuing.
CC(C)(C)OC(=O)N1CCN(S(=O)(=O)CCCOc2ccc3c(c2)C(C2(c4ccc(Cl)cc4)CCC2)NCC3)CC1 (centres unmarked) [Example 123]	≤ 10 µM
CC(C)NS(=O)(=O)CCCOc1ccc2c(c1)C(C1(c3ccc(Cl)cc3)CCC1)NCC2 (centres unmarked) [Example 117, hydrochloride]	≤ 1 µM

Looking up O=S(=O)(NCCOc1ccc2c(c1)C(C1(c3ccc(Cl)cc3)CCC1)NCC2)c1ccc(N2CCOCC2)nc1 (centres unmarked) [Example 189, hydrochloride] , I found its Ki recorded as ≤ 10 µM

Looking up O=S(=O)(NCCOc1ccc2c(c1)C(C1(c3ccc(Cl)cc3)CCC1)NCC2)C1CCCNC1 (single isomer, unassigned) [Example 160, dihydrochloride] , I found its Ki recorded as ≤ 0.1 µM

Looking up CCNCCCS(=O)(=O)NCCOc1ccc2c(c1)C(C1(c3ccc(Cl)cc3)CCC1)NCC2 (centres unmarked) [Example 187] , I found its Ki recorded as ≤ 10 µM
